Target: 5HT3 receptor (Rattus norvegicus, UniProt P35563)
Sequence (P35563 24-483): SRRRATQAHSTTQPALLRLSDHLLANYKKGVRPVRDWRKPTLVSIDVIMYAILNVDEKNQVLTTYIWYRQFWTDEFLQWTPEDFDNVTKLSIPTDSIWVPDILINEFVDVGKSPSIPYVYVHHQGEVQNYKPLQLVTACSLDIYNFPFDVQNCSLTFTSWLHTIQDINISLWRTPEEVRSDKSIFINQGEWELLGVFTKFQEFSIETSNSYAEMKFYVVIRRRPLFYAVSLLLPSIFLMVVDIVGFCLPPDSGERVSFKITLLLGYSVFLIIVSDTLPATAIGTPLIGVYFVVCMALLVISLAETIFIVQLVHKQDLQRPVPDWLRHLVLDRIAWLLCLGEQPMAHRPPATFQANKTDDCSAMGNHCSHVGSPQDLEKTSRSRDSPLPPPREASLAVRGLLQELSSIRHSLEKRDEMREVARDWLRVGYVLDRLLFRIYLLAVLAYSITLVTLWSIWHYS
Assay: 5-HT3 binding affinity in rat entorhinal cortex using ^3 H-BRL 43694 (Granisetron)
Parameters: labelled in the entorhinal cortex of the rat brain; from tissue; host or cells: rat entorhinal cortex
Conditions: ^3 H-BRL 43694 labelled 5HT3 sites, rat entorhinal cortex; read-out: Ki
Procedure: The affinity for serotonin 5-HT3 receptor was also assessed for instance in rat entorhinal cortex using the selective radioligand ^3 H-[…] as described by Nelson and Thomas (1989). Nelson D. R. and Thomas D. R., [^3 H]-BRL 43694 (Granisetron), a specific ligand for 5-HT3 binding sites in rat brain cortical membranes Biochem. Pharmac. 38, 1693-1695, 1989. […]
pKi: −log10 of the molar value. Where a name gives a salt, the structure may show the parent alone.
Reported pKi by item:
READOUT NAME: pKi

CN1C2CCCC1CC(N1CC3COc4ccccc4N3C1=O)C2 (centres unmarked) [FCE 26963, hydrochloride] :: 6.77
CN1C2CCCC1CC(N1CC3COc4ccc(Cl)cc4N3C1=O)C2 (centres unmarked) [FCE 26785, hydrochloride] :: 6.51

Reference source: patent US5364854A
